Field: inhibition. Provide a value for each of the compounds that follow.
target: 5-hydroxytryptamine receptor 4 (Cavia porcellus); experiment: Displacement of [3H]GR-113808 from 5HT4 receptor in guinea pig striatum membrane at 1 uM; type: cell membranes
Please state the number and follow it with the unit.

The examples below pair each entry with its known result.
[[record]]
test_smiles = "CCCCN1CCC(COc2nc3ccsc3n3cccc23)CC1"
measurement_target = "5-hydroxytryptamine receptor 4 (Cavia porcellus)"
measured = "100%"

[[record]]
test_smiles = "CCN(CC)CCCCOc1nc2ccsc2n2cccc12"
measurement_target = "5-hydroxytryptamine receptor 4 (Cavia porcellus)"
measured = "100%"

[[record]]
test_smiles = "C=CCCN1CCC(COc2nc3scc(C)c3n3cccc23)CC1"
measurement_target = "5-hydroxytryptamine receptor 4 (Cavia porcellus)"
measured = "100%"

[[record]]
test_smiles = "CCCN1CCN(CCOc2nc3ccsc3n3cccc23)CC1"
measurement_target = "5-hydroxytryptamine receptor 4 (Cavia porcellus)"
measured = "72%"

[[record]]
test_smiles = "CCCCCN1CCC(COc2nc3ccsc3n3cccc23)CC1"
measurement_target = "5-hydroxytryptamine receptor 4 (Cavia porcellus)"
measured = "99%"

[[record]]
test_smiles = "CCCCN1CCC(COc2nc3sccc3n3cccc23)CC1"
measurement_target = "5-hydroxytryptamine receptor 4 (Cavia porcellus)"
measured = "100%"

[[record]]
test_smiles = "c1cc2c(OCCCN3CCNCC3)nc3ccsc3n2c1"
measurement_target = "5-hydroxytryptamine receptor 4 (Cavia porcellus)"
measured = "75%"

[[record]]
test_smiles = "CN1CCC(COc2nc3sccc3n3cccc23)CC1"
measurement_target = "5-hydroxytryptamine receptor 4 (Cavia porcellus)"
measured = "100%"


Here are 2 compounds. What values of inhibition were reported for them?
1. CCCCN1CCN(CCOc2nc3ccsc3n3cccc23)CC1
2. NCCOc1nc2ccsc2n2cccc12

1: 66%; 2: 0%

Origin of measurements: ChEMBL document CHEMBL1153939
